The following compounds are shown together with reported kinase still bound, per cent of control values.
Test system: IKBKE (human) (UniProt Q14164)
Sequence (Q14164 whole entry, looked up): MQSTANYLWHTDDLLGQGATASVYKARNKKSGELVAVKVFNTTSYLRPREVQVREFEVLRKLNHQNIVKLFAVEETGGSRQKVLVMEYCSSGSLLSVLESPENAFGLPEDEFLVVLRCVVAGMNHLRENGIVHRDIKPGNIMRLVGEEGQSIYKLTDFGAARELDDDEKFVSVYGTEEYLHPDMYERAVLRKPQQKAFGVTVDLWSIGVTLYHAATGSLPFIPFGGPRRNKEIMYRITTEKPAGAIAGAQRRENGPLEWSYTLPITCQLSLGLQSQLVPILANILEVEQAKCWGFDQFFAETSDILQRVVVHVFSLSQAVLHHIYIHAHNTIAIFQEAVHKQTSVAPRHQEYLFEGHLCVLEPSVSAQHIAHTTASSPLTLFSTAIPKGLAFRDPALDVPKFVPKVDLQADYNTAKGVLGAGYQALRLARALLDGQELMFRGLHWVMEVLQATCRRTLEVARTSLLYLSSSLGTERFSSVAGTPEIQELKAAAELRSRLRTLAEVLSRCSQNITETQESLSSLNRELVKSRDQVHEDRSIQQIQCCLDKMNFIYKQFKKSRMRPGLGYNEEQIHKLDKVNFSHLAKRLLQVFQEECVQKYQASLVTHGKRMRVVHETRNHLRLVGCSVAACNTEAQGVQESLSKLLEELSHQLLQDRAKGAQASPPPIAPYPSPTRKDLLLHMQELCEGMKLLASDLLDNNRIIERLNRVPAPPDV
Measurement description: KINOMEscan competition binding
Experimental parameters: compound 10.0 µM

- Line notation: "O=c1cc(N2CCOCC2)oc2c(-c3cccc4c3sc3ccccc34)cccc12"
  kinase still bound, per cent of control: "100%"
- Line notation: "COCC(=O)NC/C=C/c1ccc2ncnc(Nc3ccc(Oc4ccc(C)nc4)c(C)c3)c2c1"
  kinase still bound, per cent of control: "100%"
- Line notation: "NC(=O)Nc1cc(-c2cccc(F)c2)sc1C(=O)N[C@@H]1CCCNC1"
  kinase still bound, per cent of control: "3.6%"
- Line notation: "COc1cc2ncnc(-n3nc(-c4ccccn4)nc3N)c2cc1OC"
  kinase still bound, per cent of control: "9.6%"
- Line notation: "CN(C)C/C=C/C(=O)Nc1ccc(C(=O)Nc2cccc(Nc3nccc(-c4cccnc4)n3)c2)cc1"
  kinase still bound, per cent of control: "76%"
- Line notation: "O=C1NC(=O)/C(=C/c2ccc3nccc(-c4ccncc4)c3c2)S1"
  kinase still bound, per cent of control: "45%"
- Line notation: "CCN1CCN(C(=O)Cc2ccc(Nc3ncc(F)c(Nc4ccc(C(=O)Nc5ccccc5Cl)cc4)n3)cc2)CC1"
  kinase still bound, per cent of control: "100%"
- Line notation: "CCN(CC)CCCCNc1ncc2cc(-c3cc(OC)cc(OC)c3)c(NC(=O)NC(C)(C)C)nc2n1"
  kinase still bound, per cent of control: "100%"
- Line notation: "CS(=O)(=O)N1CCN(Cc2cc3nc(-c4cccc5[nH]ncc45)nc(N4CCOCC4)c3s2)CC1"
  kinase still bound, per cent of control: "100%"
- Line notation: "C=CC(=O)Nc1ccc(CN(C(=O)Nc2c(Cl)c(OC)cc(OC)c2Cl)c2cc(Nc3ccc(N4CCN(C)CC4)cc3)ncn2)cc1"
  kinase still bound, per cent of control: "100%"
- Line notation: "C[C@@H](Oc1cc(-c2cnn(C3CCNCC3)c2)cnc1N)c1c(Cl)ccc(F)c1Cl"
  kinase still bound, per cent of control: "60%"
- Line notation: "COc1cc(N2CCN(C)CC2)ccc1Nc1ncc2c(n1)N(C)c1ccccc1C(=O)N2C"
  kinase still bound, per cent of control: "100%"
- Line notation: "Cc1n[nH]c2ccc(-c3cncc(OC[C@@H](N)Cc4c[nH]c5ccccc45)c3)cc12"
  kinase still bound, per cent of control: "24%"
- Line notation: "COc1cc2ncn(-c3cc(OCc4ccccc4C(F)(F)F)c(C(N)=O)s3)c2cc1OC"
  kinase still bound, per cent of control: "60%"
- Line notation: "C=CC(=O)Nc1cc(-n2c(=O)ccc3cnc4ccc(-c5cn[nH]c5)cc4c32)ccc1C"
  kinase still bound, per cent of control: "100%"

* * *

Test system: CDK4 CCND3 (human) (UniProt P11802+P30281)
Sequence (P11802 whole entry, looked up): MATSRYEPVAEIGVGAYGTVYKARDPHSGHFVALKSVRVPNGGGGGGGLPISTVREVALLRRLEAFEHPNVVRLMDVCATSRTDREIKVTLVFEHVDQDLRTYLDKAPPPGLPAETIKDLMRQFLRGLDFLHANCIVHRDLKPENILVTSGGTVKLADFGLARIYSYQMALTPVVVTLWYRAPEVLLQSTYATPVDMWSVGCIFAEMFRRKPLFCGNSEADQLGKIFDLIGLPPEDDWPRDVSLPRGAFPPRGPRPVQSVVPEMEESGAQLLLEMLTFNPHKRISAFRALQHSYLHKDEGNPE
Sequence (P30281 whole entry, looked up): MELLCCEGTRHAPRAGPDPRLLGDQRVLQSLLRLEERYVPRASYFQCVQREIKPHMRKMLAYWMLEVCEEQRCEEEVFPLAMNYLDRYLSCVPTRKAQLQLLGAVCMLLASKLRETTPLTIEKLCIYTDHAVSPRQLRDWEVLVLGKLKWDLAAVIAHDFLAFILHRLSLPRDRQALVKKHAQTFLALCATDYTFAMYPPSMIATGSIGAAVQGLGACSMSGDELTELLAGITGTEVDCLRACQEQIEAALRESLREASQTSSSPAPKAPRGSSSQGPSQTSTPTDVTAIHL
Measurement description: KINOMEscan competition binding
Experimental parameters: compound 10.0 µM
Listing of entries alongside the reported kinase still bound, per cent of control.

- Line notation: "COc1cc2ncn(-c3cc(OCc4ccccc4C(F)(F)F)c(C(N)=O)s3)c2cc1OC"
  Output unit: "%"
  kinase still bound, per cent of control: 100
- Line notation: "COc1cc2ncnc(-n3nc(-c4ccccn4)nc3N)c2cc1OC"
  Output unit: "%"
  kinase still bound, per cent of control: 60
- Line notation: "O=C1NC(=O)/C(=C/c2ccc3nccc(-c4ccncc4)c3c2)S1"
  Output unit: "%"
  kinase still bound, per cent of control: 100

* * *

Test system: CSNK2A1 (human) (UniProt P68400)
Sequence (P68400 whole entry, looked up): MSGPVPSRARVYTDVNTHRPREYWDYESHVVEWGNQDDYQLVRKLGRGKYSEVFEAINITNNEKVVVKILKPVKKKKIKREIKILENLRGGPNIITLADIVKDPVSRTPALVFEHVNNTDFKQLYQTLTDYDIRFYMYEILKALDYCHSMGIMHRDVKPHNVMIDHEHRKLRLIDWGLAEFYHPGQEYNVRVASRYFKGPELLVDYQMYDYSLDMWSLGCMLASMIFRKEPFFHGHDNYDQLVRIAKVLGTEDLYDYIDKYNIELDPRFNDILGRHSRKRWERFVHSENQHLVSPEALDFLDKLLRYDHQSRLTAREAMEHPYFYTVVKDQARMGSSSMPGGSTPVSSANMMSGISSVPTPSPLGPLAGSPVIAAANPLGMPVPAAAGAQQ
Measurement description: KINOMEscan competition binding
Experimental parameters: compound 10.0 µM
Recorded endpoint: kinase still bound, per cent of control

- Line notation: "C=CC(=O)Nc1ccc(CN(C(=O)Nc2c(Cl)c(OC)cc(OC)c2Cl)c2cc(Nc3ccc(N4CCN(C)CC4)cc3)ncn2)cc1"
  Recorded endpoint: "kinase still bound, per cent of control"
  Result: "100%"
- Line notation: "COc1cc2ncn(-c3cc(OCc4ccccc4C(F)(F)F)c(C(N)=O)s3)c2cc1OC"
  Recorded endpoint: "kinase still bound, per cent of control"
  Result: "30%"
- Line notation: "COCC(=O)NC/C=C/c1ccc2ncnc(Nc3ccc(Oc4ccc(C)nc4)c(C)c3)c2c1"
  Recorded endpoint: "kinase still bound, per cent of control"
  Result: "87%"
- Line notation: "CNC(=O)c1cc(Oc2ccc(NC(=O)Nc3ccc(Cl)c(C(F)(F)F)c3)cc2)ccn1"
  Recorded endpoint: "kinase still bound, per cent of control"
  Result: "100%"
- Line notation: "Cc1n[nH]c2ccc(-c3cncc(OC[C@@H](N)Cc4c[nH]c5ccccc45)c3)cc12"
  Recorded endpoint: "kinase still bound, per cent of control"
  Result: "17%"
- Line notation: "O=C1NC(=O)/C(=C/c2ccc3nccc(-c4ccncc4)c3c2)S1"
  Recorded endpoint: "kinase still bound, per cent of control"
  Result: "7.9%"
- Line notation: "COc1cc(N2CCN(C)CC2)ccc1Nc1ncc2c(n1)N(C)c1ccccc1C(=O)N2C"
  Recorded endpoint: "kinase still bound, per cent of control"
  Result: "100%"
- Line notation: "CCN(CC)CCCCNc1ncc2c(n1)N(C)C(=O)N(c1c(Cl)c(OC)cc(OC)c1Cl)C2"
  Recorded endpoint: "kinase still bound, per cent of control"
  Result: "100%"
- Line notation: "O=c1cc(N2CCOCC2)oc2c(-c3cccc4c3sc3ccccc34)cccc12"
  Recorded endpoint: "kinase still bound, per cent of control"
  Result: "74%"
- Line notation: "O=C(Nc1cccc(Nc2ncc(Br)c(NCCc3cnc[nH]3)n2)c1)N1CCCC1"
  Recorded endpoint: "kinase still bound, per cent of control"
  Result: "0.3%"
- Line notation: "NC(=O)Nc1cc(-c2cccc(F)c2)sc1C(=O)N[C@@H]1CCCNC1"
  Recorded endpoint: "kinase still bound, per cent of control"
  Result: "0.35%"
- Line notation: "CCN1CCN(C(=O)Cc2ccc(Nc3ncc(F)c(Nc4ccc(C(=O)Nc5ccccc5Cl)cc4)n3)cc2)CC1"
  Recorded endpoint: "kinase still bound, per cent of control"
  Result: "18%"
- Line notation: "N#CCNC(=O)c1ccc(-c2ccnc(Nc3ccc(N4CCOCC4)cc3)n2)cc1"
  Recorded endpoint: "kinase still bound, per cent of control"
  Result: "52%"

* * *

Test system: LTK (human)
Measurement description: KINOMEscan competition binding
Experimental parameters: compound 10.0 µM
kinase still bound, per cent of control values by entry
Recorded endpoint: kinase still bound, per cent of control

- Line notation: "CCN(CC)CCCCNc1ncc2c(n1)N(C)C(=O)N(c1c(Cl)c(OC)cc(OC)c1Cl)C2"
  Recorded endpoint: "kinase still bound, per cent of control"
  Result: "100%"
- Line notation: "COc1cc(C(=O)N2CCC(N3CCN(C)CC3)CC2)ccc1Nc1ncc2c(n1)N(C)c1ccccc1C(=O)N2C"
  Recorded endpoint: "kinase still bound, per cent of control"
  Result: "32%"
- Line notation: "N#CCNC(=O)c1ccc(-c2ccnc(Nc3ccc(N4CCOCC4)cc3)n2)cc1"
  Recorded endpoint: "kinase still bound, per cent of control"
  Result: "100%"
- Line notation: "COc1cc(N2CCN(C)CC2)ccc1Nc1ncc2c(n1)N(C)c1ccccc1C(=O)N2C"
  Recorded endpoint: "kinase still bound, per cent of control"
  Result: "100%"
- Line notation: "CCN(CC)CCCCNc1ncc2cc(-c3cc(OC)cc(OC)c3)c(NC(=O)NC(C)(C)C)nc2n1"
  Recorded endpoint: "kinase still bound, per cent of control"
  Result: "100%"

* * *

Tested on: MET (human), P08581 [Y1235D]
Measurement description: KINOMEscan competition binding
Experimental parameters: compound 10.0 µM
Recorded endpoint: kinase still bound, per cent of control (%)

- Compound: "CCN(CC)CCCCNc1ncc2c(n1)N(C)C(=O)N(c1c(Cl)c(OC)cc(OC)c1Cl)C2"
  Recorded number: 100
- Compound: "CCN(CCO)CCCOc1ccc2c(Nc3cc(CC(=O)Nc4cccc(F)c4)[nH]n3)ncnc2c1"
  Recorded number: 30
- Compound: "Cc1cn(-c2cc(C(=O)Nc3ccc(C)c(NC(=O)c4ccno4)c3)cc(C(F)(F)F)c2)cn1"
  Recorded number: 100
- Compound: "N#Cc1cc(-c2ccnc(Nc3ccc(-n4cnc(-c5cccnc5)n4)cc3)n2)cc(N2CCOCC2)c1"
  Recorded number: 14
- Compound: "O=C1Nc2ccc(I)cc2/C1=C/c1cc(Br)c(O)c(Br)c1"
  Recorded number: 72
- Compound: "COc1cc(N2CCN(C)CC2)ccc1Nc1nc(N)c(C(=O)c2c(Cl)cccc2Cl)s1"
  Recorded number: 100
- Compound: "CNC(=O)c1cc(Oc2ccc(NC(=O)Nc3ccc(Cl)c(C(F)(F)F)c3)cc2)ccn1"
  Recorded number: 70
- Compound: "COc1cc2ncn(-c3cc(OCc4ccccc4C(F)(F)F)c(C(N)=O)s3)c2cc1OC"
  Recorded number: 40
- Compound: "CS(=O)(=O)N1CCN(Cc2cc3nc(-c4cccc5[nH]ncc45)nc(N4CCOCC4)c3s2)CC1"
  Recorded number: 100
- Compound: "COc1cc(N2CCN(C)CC2)ccc1Nc1ncc2c(n1)N(C)c1ccccc1C(=O)N2C"
  Recorded number: 100
- Compound: "COc1ccc(N(C(=O)Oc2c(C)cccc2C)c2ccnc(Nc3ccc(N4CCN(C)CC4)cc3)n2)c(OC)c1"
  Recorded number: 1.6
- Compound: "OCCCNc1cc(-c2ccnc(Nc3cccc(Cl)c3)n2)ccn1"
  Recorded number: 100
- Compound: "NC(=O)Nc1cc(-c2cccc(F)c2)sc1C(=O)N[C@@H]1CCCNC1"
  Recorded number: 0.6
- Compound: "O=C1NC(=O)/C(=C/c2ccc3nccc(-c4ccncc4)c3c2)S1"
  Recorded number: 94
- Compound: "O=c1cc(N2CCOCC2)oc2c(-c3cccc4c3sc3ccccc34)cccc12"
  Recorded number: 59
- Compound: "O=C(NOC[C@H](O)CO)c1ccc(F)c(F)c1Nc1ccc(I)cc1F"
  Recorded number: 100
- Compound: "N#CCNC(=O)c1ccc(-c2ccnc(Nc3ccc(N4CCOCC4)cc3)n2)cc1"
  Recorded number: 100
- Compound: "COCC(=O)NC/C=C/c1ccc2ncnc(Nc3ccc(Oc4ccc(C)nc4)c(C)c3)c2c1"
  Recorded number: 81
- Compound: "CC(=O)c1c(C)c2cnc(Nc3ccc(N4CCNCC4)cn3)nc2n(C2CCCC2)c1=O"
  Recorded number: 58
- Compound: "CNC(=O)Nc1ccc(-c2nc(N3CC4CCC(C3)O4)c3cnn(C4CCC5(CC4)OCCO5)c3n2)cc1"
  Recorded number: 24
- Compound: "O=C(NC1CC1)c1cccc(-c2ccc3c(NC(=O)C4CC4)n[nH]c3c2)c1"
  Recorded number: 74
- Compound: "CCCS(=O)(=O)Nc1ccc(F)c(C(=O)c2c[nH]c3ncc(-c4ccc(Cl)cc4)cc23)c1F"
  Recorded number: 78
- Compound: "C=CC(=O)Nc1cc(-n2c(=O)ccc3cnc4ccc(-c5cn[nH]c5)cc4c32)ccc1C"
  Recorded number: 100
- Compound: "O=c1[nH]c2ccccc2n1C1CCN(Cc2ccc(-c3nc4cc5[nH]cnc5cc4nc3-c3ccccc3)cc2)CC1"
  Recorded number: 68
- Compound: "CC1=C(C(=O)Nc2cc3cn[nH]c3cc2F)C(c2ccc(C(F)(F)F)cc2)CC(=O)N1 (centres undefined)"
  Recorded number: 65
- Compound: "Nc1ccc(-c2ccc3ncc4ccc(=O)n(-c5cccc(C(F)(F)F)c5)c4c3c2)cn1"
  Recorded number: 98
- Compound: "CCN1CCN(C(=O)Cc2ccc(Nc3ncc(F)c(Nc4ccc(C(=O)Nc5ccccc5Cl)cc4)n3)cc2)CC1"
  Recorded number: 23
- Compound: "COc1cc2ncnc(Nc3cccc(Cl)c3)c2cc1OC"
  Recorded number: 100
- Compound: "N#Cc1c(NC(=O)c2cccc3ccccc23)sc2c1CCCC2"
  Recorded number: 71
